Taken from patent US20080026996A1.

Reported values of EC50 cAMP, DiscoveRx for individual entries
target_under_test: T1, human VPAC2 receptor (human, UniProt P41587 24-438)
T1 sequence (looked up): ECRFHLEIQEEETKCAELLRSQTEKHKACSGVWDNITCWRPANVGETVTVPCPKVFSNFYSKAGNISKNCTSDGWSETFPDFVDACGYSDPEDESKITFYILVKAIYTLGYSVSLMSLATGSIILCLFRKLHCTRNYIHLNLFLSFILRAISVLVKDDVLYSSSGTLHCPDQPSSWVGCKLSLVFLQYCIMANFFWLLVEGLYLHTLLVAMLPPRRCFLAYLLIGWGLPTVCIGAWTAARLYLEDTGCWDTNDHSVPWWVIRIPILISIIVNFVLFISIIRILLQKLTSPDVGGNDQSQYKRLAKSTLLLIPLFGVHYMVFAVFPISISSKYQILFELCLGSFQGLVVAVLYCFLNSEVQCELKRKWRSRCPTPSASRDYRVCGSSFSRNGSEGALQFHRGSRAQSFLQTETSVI
experimental_details: cell-based or functional assay
Where no end group is shown, it is not given here.
measure: EC50 cAMP, DiscoveRx (nM)

# binder, measure, value_relation_sign, test_result
measured = [
    ("HSDAFFTDNYTRLRKQVAAKKYLQSIKNKRYGGPSSGAPPPS [P58]", "EC50 cAMP, DiscoveRx", "=", 11.8),
    ("HSDAVFTDNWTRLRKQVAAKKYLQSIKNKRYGGPSSGAPPPS [P27]", "EC50 cAMP, DiscoveRx", "=", 27.6),
    ("HTDAVFTDNYTRLRKQVAAKKYLQSIKNKRYGGPSSGAPPPS [P45]", "EC50 cAMP, DiscoveRx", "=", 11.6),
    ("HSDAVFTDNYTRLRKQVAAKKYLQSIKNKRF [P34]", "EC50 cAMP, DiscoveRx", "=", 2.28),
    ("HSDLVFTDNYTRLRKQVAAKKYLQSIKNKRYGGPSSGAPPPS (not fully specified) [P55]", "EC50 cAMP, DiscoveRx", "=", 15.3),
    ("HSDFVFTDNYTRLRKQVAAKKYLQSIKNKRYGGPSSGAPPPS [P52]", "EC50 cAMP, DiscoveRx", "=", 140),
    ("HSDAVLTDNYTRLRKQVAAKKYLQSIKNKRYGGPSSGAPPPS [P64]", "EC50 cAMP, DiscoveRx", ">", 1000),
    ("HSDAVFTDNYTRLRKQVAAKKYLQSIKNKRYGGPSSGAPPPS [P6]", "EC50 cAMP, DiscoveRx", "=", 2.56),
    ("HSDALFTDNYTRLRKQVAAKKYLQSIKNKRYGGPSSGAPPPS (not fully specified) [P61]", "EC50 cAMP, DiscoveRx", "=", 2.14),
    ("HSDAYFTDNYTRLRKQVAAKKYLQSIKNKRYGGPSSGAPPPS [P70]", "EC50 cAMP, DiscoveRx", "=", 4.89),
    ("HSDAVFTDNYTRLLAKVAAKKYLQSIKNKRYGGPSSGAPPPS [P89]", "EC50 cAMP, DiscoveRx", "=", 0.7),
    ("HSDAVFTDNYTRLRKQVAAKKYLQSIKNKRHGGPSSGAPPPS [P28]", "EC50 cAMP, DiscoveRx", "=", 3.92),
]
